Molecular target: ALK (C1156Y) (Homo sapiens, UniProt Q9UM73, C1156Y)
Construct: purchased DiscoverX
Sequence (Q9UM73 19-1620 C1156Y): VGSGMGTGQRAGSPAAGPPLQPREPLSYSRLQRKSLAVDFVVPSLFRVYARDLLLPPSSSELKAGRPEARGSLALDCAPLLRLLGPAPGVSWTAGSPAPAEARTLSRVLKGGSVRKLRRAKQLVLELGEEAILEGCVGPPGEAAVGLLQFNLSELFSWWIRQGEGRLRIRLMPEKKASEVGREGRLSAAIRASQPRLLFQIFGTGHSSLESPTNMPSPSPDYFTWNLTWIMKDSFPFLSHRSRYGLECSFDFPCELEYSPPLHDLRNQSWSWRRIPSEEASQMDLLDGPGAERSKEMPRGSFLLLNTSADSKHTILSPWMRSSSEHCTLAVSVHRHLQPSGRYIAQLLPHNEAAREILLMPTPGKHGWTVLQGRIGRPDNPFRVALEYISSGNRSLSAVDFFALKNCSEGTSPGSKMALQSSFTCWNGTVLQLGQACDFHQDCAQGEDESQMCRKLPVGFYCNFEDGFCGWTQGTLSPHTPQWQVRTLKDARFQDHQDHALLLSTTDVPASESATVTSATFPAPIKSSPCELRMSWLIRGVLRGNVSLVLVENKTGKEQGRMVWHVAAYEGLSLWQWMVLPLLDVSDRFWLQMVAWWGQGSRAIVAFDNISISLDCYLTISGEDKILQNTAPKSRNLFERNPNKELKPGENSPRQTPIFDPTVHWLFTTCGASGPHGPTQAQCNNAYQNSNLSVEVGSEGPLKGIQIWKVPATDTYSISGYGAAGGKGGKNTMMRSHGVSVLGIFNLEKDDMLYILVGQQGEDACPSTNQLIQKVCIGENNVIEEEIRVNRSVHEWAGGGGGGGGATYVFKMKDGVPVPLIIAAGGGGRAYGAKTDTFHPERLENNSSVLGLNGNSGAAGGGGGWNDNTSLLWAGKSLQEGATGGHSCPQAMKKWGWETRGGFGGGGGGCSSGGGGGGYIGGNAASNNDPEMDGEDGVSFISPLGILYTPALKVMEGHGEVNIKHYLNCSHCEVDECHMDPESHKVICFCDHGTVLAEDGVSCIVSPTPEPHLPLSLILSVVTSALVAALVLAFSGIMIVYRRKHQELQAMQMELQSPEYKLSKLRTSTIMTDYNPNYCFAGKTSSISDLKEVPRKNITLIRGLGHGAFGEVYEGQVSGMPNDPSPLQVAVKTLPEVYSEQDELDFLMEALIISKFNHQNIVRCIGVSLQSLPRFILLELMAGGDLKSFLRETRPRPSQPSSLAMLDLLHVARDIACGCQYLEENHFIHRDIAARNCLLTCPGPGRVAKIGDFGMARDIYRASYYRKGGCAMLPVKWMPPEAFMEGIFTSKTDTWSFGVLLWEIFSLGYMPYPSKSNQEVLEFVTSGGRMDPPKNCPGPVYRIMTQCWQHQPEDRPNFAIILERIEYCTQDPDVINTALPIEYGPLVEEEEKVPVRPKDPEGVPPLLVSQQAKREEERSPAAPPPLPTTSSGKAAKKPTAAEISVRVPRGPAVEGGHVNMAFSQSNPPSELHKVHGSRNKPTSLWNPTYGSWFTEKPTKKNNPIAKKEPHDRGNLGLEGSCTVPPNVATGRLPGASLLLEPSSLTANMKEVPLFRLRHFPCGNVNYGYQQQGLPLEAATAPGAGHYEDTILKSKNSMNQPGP
Assay: scanMAX Kinase panel (DiscoverX), % control
Assay type: binding
Details: <35% = active
ASSAY_METRIC: remaining binding at 1 µM (%)

SMILES_ENTRY: CNc1cc(Nc2ccc(P3(=O)CCN(C4CC4)CC3)cc2OC)nc2[nH]cc(C(F)(F)F)c12
ASSAY_METRIC: remaining binding at 1 µM
RESULT_UNITS: %
RESULT_NUMBER: 1.3
//
SMILES_ENTRY: CNc1cc(Nc2ccc(C(=O)N3CC[C@H](N4CCOCC4)C3)c3c2OCC3)nc2[nH]cc(C(F)(F)F)c12
ASSAY_METRIC: remaining binding at 1 µM
RESULT_UNITS: %
RESULT_NUMBER: 3.9
//
SMILES_ENTRY: CCNc1cc(Nc2ccc(C(=O)N3CCC(N4C[C@@H]5C[C@H]4CO5)CC3)c3c2OCC3)nc2[nH]cc(C(F)(F)F)c12
ASSAY_METRIC: remaining binding at 1 µM
RESULT_UNITS: %
RESULT_NUMBER: 2
//
SMILES_ENTRY: O=C(c1ccc(Nc2cc(C3CC3)c3c(C(F)(F)F)c[nH]c3n2)c2c1CCO2)N1CC[C@@H](N2CCOCC2)C1
ASSAY_METRIC: remaining binding at 1 µM
RESULT_UNITS: %
RESULT_NUMBER: 42
//
SMILES_ENTRY: CCNc1cc(Nc2ccc(P3(=O)CCN(C4CC4)CC3)cc2OC)nc2[nH]cc(C(F)(F)F)c12
ASSAY_METRIC: remaining binding at 1 µM
RESULT_UNITS: %
RESULT_NUMBER: 5.3
//
SMILES_ENTRY: CNc1cc(Nc2ccc(C(=O)N3CCC(N4CCOCC4)CC3)c3c2OCCO3)nc2[nH]cc(C(F)(F)F)c12
ASSAY_METRIC: remaining binding at 1 µM
RESULT_UNITS: %
RESULT_NUMBER: 0.9
//
SMILES_ENTRY: O=C(c1ccc(Nc2cc(C3CC3)c3c(C(F)(F)F)c[nH]c3n2)c2c1OCCO2)N1CCC(N2CCOCC2)CC1
ASSAY_METRIC: remaining binding at 1 µM
RESULT_UNITS: %
RESULT_NUMBER: 12
//
SMILES_ENTRY: O=C(c1ccc(Nc2cc(C3CC3)c3c(C(F)(F)F)c[nH]c3n2)c2c1CCO2)N1CC[C@H](N2CCOCC2)C1
ASSAY_METRIC: remaining binding at 1 µM
RESULT_UNITS: %
RESULT_NUMBER: 9.7

I: CCCNc1cc(Nc2ccc(C(=O)N3CCC(N4CCOCC4)CC3)c3c2OCCO3)nc2[nH]cc(C(F)(F)F)c12
II: CCNc1cc(Nc2ccc(S(=O)(=O)N3CCC(N4CCOCC4)CC3)c3c2OCCO3)nc2[nH]cc(C(F)(F)F)c12
III: CNc1cc(Nc2ccc(S(=O)(=O)N3CCC(N4CCOCC4)CC3)cc2OC)nc2[nH]cc(C(F)(F)F)c12
IV: COCCNc1cc(Nc2ccc(P3(=O)CCN(C4CC4)CC3)cc2OC)nc2[nH]cc(C(F)(F)F)c12
Provide the items ranked by increasing remaining binding at 1 µM. Give your ranking as a list of the labels in the requested order.
I, IV, III, II

Origin of values: patent US12240844B2
